# systemName: T1, human GARP-proTGFβ1 complex (human, UniProt P01137 30-390; Q14392 20-627)
# T1 construct: also called hGARP-proTGFβ1; hGARP
# T1 sequence (P01137 30-390, chain 1 of 2): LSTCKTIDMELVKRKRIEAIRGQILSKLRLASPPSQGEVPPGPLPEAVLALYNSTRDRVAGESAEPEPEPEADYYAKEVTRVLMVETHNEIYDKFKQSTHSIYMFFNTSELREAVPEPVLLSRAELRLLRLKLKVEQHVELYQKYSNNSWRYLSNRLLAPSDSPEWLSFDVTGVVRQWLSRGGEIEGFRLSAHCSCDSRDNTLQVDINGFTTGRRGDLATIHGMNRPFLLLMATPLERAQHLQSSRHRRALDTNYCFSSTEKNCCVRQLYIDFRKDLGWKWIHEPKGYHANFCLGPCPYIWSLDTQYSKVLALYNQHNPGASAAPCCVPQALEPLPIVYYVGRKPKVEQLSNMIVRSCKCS
# T1 sequence (Q14392 20-627, chain 2 of 2): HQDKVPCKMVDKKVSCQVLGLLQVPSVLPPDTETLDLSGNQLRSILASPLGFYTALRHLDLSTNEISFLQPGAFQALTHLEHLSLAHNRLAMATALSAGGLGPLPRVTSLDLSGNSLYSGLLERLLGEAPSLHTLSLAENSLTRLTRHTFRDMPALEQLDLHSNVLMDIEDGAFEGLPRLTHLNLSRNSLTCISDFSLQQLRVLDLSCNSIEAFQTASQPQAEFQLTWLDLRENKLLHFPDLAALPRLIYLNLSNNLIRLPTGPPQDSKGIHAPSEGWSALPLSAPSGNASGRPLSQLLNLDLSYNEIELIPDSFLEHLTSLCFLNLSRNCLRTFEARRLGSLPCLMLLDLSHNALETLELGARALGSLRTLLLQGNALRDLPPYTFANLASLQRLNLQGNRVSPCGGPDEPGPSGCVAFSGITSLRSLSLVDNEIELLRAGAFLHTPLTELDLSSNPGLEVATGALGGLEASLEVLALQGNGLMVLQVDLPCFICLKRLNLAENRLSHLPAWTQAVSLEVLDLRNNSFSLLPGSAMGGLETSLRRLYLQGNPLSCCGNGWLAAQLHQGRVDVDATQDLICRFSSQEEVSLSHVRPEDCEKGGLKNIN
# protocolNotes: BLI (Octet)
# Kd values compiled below
A number alone suffices; assume nM.

Ab19 (antibody, IgG4, V domains shown) VH: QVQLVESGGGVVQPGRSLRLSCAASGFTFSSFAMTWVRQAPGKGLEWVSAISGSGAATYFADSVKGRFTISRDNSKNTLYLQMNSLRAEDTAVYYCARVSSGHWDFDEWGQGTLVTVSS VL: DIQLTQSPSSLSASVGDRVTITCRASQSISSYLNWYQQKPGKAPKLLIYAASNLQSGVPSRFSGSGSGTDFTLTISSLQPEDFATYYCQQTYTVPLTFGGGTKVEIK ... 11.2
Ab22 (antibody, IgG4, V domains shown) VH: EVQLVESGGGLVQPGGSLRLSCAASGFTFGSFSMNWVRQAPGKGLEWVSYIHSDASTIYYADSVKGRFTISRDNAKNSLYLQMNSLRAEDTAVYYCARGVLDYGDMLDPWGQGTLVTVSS VL: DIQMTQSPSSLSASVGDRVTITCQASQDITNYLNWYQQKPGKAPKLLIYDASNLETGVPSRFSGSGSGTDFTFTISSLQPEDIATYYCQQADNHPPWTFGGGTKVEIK ... 0.974
Ab21 (antibody, V domains shown) VH: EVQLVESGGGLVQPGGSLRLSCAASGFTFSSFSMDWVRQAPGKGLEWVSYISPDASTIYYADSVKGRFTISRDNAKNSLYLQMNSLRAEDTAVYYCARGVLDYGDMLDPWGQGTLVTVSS VL: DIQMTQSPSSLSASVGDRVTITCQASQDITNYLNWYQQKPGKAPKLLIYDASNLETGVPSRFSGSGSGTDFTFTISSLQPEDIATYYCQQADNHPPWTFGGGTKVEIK ... 0.833

*Q* What measured Kd goes with Ab20 (antibody, IgG4, V domains shown) VH: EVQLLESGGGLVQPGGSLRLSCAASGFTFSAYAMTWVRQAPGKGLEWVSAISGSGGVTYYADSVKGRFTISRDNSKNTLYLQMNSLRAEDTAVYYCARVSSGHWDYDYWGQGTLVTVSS VL: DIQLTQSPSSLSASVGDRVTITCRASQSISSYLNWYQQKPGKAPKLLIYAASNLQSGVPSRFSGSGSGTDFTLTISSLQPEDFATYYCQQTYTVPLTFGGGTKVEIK ?
*A* 0.884
